Please go through the items and note down their ADCC cytotoxic activity (51Cr release) against HCT-116.
# assayTarget: T1, human CAPRIN-1 expressed on the surface of human cancer cells (human, UniProt Q14444 2-709); note: test concentration or dose not given here
# T1 sequence: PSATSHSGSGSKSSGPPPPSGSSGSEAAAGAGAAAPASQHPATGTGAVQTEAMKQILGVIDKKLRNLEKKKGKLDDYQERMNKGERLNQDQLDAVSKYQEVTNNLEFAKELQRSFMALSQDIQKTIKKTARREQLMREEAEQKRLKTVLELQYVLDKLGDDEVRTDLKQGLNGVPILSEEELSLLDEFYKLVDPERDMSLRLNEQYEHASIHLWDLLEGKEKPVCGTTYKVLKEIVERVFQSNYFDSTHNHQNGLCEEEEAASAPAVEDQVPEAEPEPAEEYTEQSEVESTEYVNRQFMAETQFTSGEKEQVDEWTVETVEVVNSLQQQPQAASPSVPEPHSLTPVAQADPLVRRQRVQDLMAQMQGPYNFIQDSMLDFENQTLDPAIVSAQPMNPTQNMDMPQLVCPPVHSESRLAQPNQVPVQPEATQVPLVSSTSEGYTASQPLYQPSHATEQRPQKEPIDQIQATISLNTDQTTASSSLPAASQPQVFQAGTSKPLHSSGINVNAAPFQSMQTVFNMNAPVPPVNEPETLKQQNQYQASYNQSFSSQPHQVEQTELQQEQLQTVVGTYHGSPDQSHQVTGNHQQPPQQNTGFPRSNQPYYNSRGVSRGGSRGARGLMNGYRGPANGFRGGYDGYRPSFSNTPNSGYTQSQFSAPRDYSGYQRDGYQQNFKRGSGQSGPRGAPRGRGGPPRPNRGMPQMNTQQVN
# assayText: cell-based or functional assay

For orientation, consider the following solved cases.
{"binder": "human-chicken chimeric monoclonal antibody #4 (antibody, V domains shown) VH: AVTLDESGGGLQTPGGAVSLVCKGSGFTFSSYGMGWVRQAPGKGLEYVAAIRKDGSTNYGPAVKGRATISRDNGQSTVRLQLSNLRAEDTATYYCAKRSHTGVNAAKIDAWGRGTEVIVS VL: ALTQPASVSANPGETVKITCSGASHNYGWFQQKSPGSAPVTVIYSNDKRPSDIPSRFSGSKSGSTATLTITGVQADDEAVYFCGGYNIYGPTFGAGTTLTV", "experimentalResult": "≥ 19%"}
{"binder": "human-mouse chimeric monoclonal antibody #1 (antibody, V domains shown) VH: GPGLVQPSQSLSITCTVSGFSLTTYDLHWVRQSPGKGLEWLGVIWSGGSTDYNAAFISRLSISKDNSKSQVFFKMNSLQANDTAIYYCARNYGYSAWFAYWGQGTLVTVSA VL: DVLMTQTPLSLPVSLGDQASISCRSSQSIVHSNGNTYLEWYLQKPGQSPKLLIYKVSNRFSGVPDRFSGSGSGTDFTLKISRVEAEDLGVYYCFQGSHVPLTFGAGTKLELKR", "experimentalResult": "≥ 19%"}
{"binder": "human-mouse chimeric comparative monoclonal antibody 4 (antibody, human IgG1, kappa, V domains shown) VH: EVQLHQFGAELVKPGASVKISCKASGYTFTDYNMDWVKQSHGKSLEWIGDINPNYDSTSYNQKFKGKATLTVDKSSSTAYMELRSLTSEDTAVYYCARSRSYDYEGFAYWGQGTLVTVSA VL: SGDRVSLSCRASQSISNYLHWYQQKSHESPRLLIKYASQSISGIPSRFSGSGSGTDFTLSINSVETEDFGMYFCQQSNSWPYTFGAGTKLEIKQ", "experimentalResult": "< 3%"}
{"binder": "human-chicken chimeric monoclonal antibody #2 (antibody, V domains shown) VH: AVTLDESGGGLQTPGGALSLVCKASGFTFRSHSMFWVRQAPGKGLEYVAGIYGVGRSIRYGSAVKGRATMSRDNGQSTVRLQLNNLRAEDTGTYYCAKSGYFSNRRYWDSGAYFIDAWGHGTEVIVS VL: ALTQPASVSANLGGTVEITCSGGYSNYGWYQQKSPGSAPVTVIYYNDKRPSDIPSRFSGSKSGSTGTLTITGVRAEDEAVYYCGGYDSSTDAGIFGAGTTLTV", "experimentalResult": "≥ 19%"}

Next up:
(Q) Quick one: ADCC cytotoxic activity (51Cr release) against HCT-116 for human-mouse chimeric monoclonal antibody #2 (antibody, human IgG1, kappa, V domains shown) VH: GGGLVKPGGSLKLSCAASGFTFSSYGMSWVRQTPEKRLEWVATISSGGSYTYYPDSVKGRFTISRDNAKNTLYLQMSSLRSEDTAMYYCASLASYYFDYWGQGTTLTVSS VL: GARCDVQMIQSPSSLSASLGDIVTMTCQASQGTSINLNWFQQKPGKAPKLLIYGASSLEDGVPSRFSGSCFGTDFTLTISSLEDEDMATYFCLQHSYLPPLTFGAGTKLELKR ?
(A) ≥ 18%
